Values were extracted from patent US20250041437A1.

Kindly supply the reported Kd values for the records listed here.
Target: T1, recombinant human MUC1-SEA (MUC1 antigen, Acrobiosystems, Cat: MU1-H52H9) (human, UniProt P15941 1039-1158)
T1 construct: Bought protein, captured on an anti-His chip (so His-tagged)
T1 sequence: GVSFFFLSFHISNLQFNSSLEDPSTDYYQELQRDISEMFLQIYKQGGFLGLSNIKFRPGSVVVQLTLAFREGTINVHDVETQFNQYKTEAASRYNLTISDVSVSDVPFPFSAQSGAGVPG
Assay: SPR; MUC1 antigen captured on anti-His CM5 chip, antibody as analyte
Expressed in nM, but write only the number.

Q: Recorded Kd of HM2 LM3 variant of humanized anti-MUC1 antibody SP66 (antibody, V domains shown, Humanized IgG expressed in CHO cells; only variable domains tied to the variant) VH: EIQLVQSGAEVKKPGSSVKVSCKVTGHSITRGSSWHWMRQAPGQGLEWIGYIHYGGGTSYNPSLKSRITITRDTSTNTAYMELSSLRSEDTAFYFCARYSYDITYRWFFDVWGQGTLVTVSS VL: DIQMTQSPSTLSASVGDRVTITCRASQNIGTSIHWYQQKPGKAPKLLIKYASESISGVPSRFSGSGSGTEFTLTISSLQPDDFATYYCQQNNNWPLTFGQGTKVEVK , please.
Ans: 0.0598

Q: Recorded Kd of HM4 LM3 variant of humanized anti-MUC1 antibody SP66 (antibody, V domains shown, Humanized IgG expressed in CHO cells; only variable domains tied to the variant) VH: EIQLVQSGAEVKKPGSSVKVSCKVTGHSITRGSSWHWMRQAPGQGLEWIGYIHYGGGTSYNPSLKSRATLTRDTSTNTFYMELSSLRSEDTAFYFCARYSYDITYRWFFDVWGQGTLVTVSS VL: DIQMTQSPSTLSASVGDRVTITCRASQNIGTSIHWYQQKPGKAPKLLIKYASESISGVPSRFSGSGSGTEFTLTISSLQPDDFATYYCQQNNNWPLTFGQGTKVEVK , please.
Ans: 0.0826

Q: Recorded Kd of HM5 LM2 variant of humanized anti-MUC1 antibody SP66 (antibody, V domains shown, Humanized IgG expressed in CHO cells; only variable domains tied to the variant) VH: EIQLVQSGAEVKKPGSSVKVSCKVTGHSITRGSSWHWMRQAPGQGLEWIGYIHYGGGTSYNPSLKSRITITRDTSTNTFYMELSSLRSEDTAFYFCARYSYDITYRWFFDVWGQGTLVTVSS VL: DIQMTQSPSTLSASVGDRVTITCRASQNIGTSIHWYQQKPGKAPKLLIKRASESISGVPSRFSGSGSGTEFTLTISSLQPDDFATYYCQQNNNWPLTFGQGTKVEVK , please.
Ans: 0.0444

Q: Recorded Kd of HM2 LM2 variant of humanized anti-MUC1 antibody SP66 (antibody, V domains shown, Humanized IgG expressed in CHO cells; only variable domains tied to the variant) VH: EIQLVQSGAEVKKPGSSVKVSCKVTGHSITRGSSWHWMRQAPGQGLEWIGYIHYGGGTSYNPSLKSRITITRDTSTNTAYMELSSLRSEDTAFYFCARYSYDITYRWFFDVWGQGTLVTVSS VL: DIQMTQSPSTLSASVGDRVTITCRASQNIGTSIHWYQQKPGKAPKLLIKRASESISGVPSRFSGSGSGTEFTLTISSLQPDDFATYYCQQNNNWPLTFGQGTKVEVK , please.
Ans: 0.144

Q: Recorded Kd of HM3 LM3 variant of humanized anti-MUC1 antibody SP66 (antibody, V domains shown, Humanized IgG expressed in CHO cells; only variable domains tied to the variant) VH: EIQLVQSGAEVKKPGSSVKVSCKVTGHSITRGSSWHWMRQAPGQGLEWIGYIHYGGGTSYNPSLKSRATLTRDTSTNTAYMELSSLRSEDTAFYFCARYSYDITYRWFFDVWGQGTLVTVSS VL: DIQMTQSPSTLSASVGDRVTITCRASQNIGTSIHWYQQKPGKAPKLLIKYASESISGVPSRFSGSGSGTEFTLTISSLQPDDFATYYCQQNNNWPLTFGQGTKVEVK , please.
Ans: 0.0775
